Documented Enzyme Activity Endpoint Assay (purified): IgG across a set of binders
molecular target: pooled human IgG (human); test: cell-based or functional assay; also: test concentration or dose not given here
Observation type: Enzyme Activity Endpoint Assay (purified): IgG (ng/µL)

binder="PRT-213 (enzyme) MEVVEVWPYGQNPNGKTEILSQTEDSESLQRLRDIEDFQAEKKKEGVVYTKWLDGVTVKDHDFRKIVDGNIEYYATPLLNGRGWYDINKDFNRDSDKCAAAVAANMFHYWLDRNRDNVDRFLKQNPEKHGIIELPDGQLKLSDFLNTYESDNGYRDKSKLFDFISKNFNGPVWTDKLLDNYINGYGYNYKYGRTIEDPTKNTSKINFFKKVFNEKILTDIHSIRNQNEFSDLLSEALYTGKAIGLSYGPAGLRHSLGHIISVWGADFDEDGNVVAIYVTDSDDKKLTIGDERVGLKRYKVSTDDEGRARLTAYTETDNTGGQVRGLYTLDTGTQAWADYFDKTEQTGTDQAEQLEHHHHHH" observed_value=1290
binder="PRT-224 (enzyme) MEVVEVWPYGQNPNGKTEILSQTEDSESLQRLRDIEDFQAEKKKQNVVYTKWLDGVDVKDHDFRKIVDGNIAYYATPLLNGRGFYDINKDFNRDSDKCAAAVAANMFHYWLDINRDNVDRFLRQNPEKHGIIELPDGQLKLSDFLNTYESDHGYRDKSKLFDFISNNFNGPVWTDKLLDNYINGYAYNYKYGRTIEDPTKNTSKINFFKEVFNEKILTNNHSIRNQNEFSVLLSEALYTGKAIGLSYGPAGLRHSLGHIISVWGADLDADGNVVAIYVTDSDDKKLTIGDERVGLKRYKISTDDEGRLRLTAYEETHNTGGQIRGLWTLDTGKQAWADYFDKTEQTGTDQAEQLEHHHHHH" observed_value=344
